STUDY_TARGET: LXRβ (Homo sapiens, UniProt P55055)
Construct: Co-transfection expression plasmids, comprising full-length LXRα (pCMX-h LXRα[…] or LXRβ (pCMX-hLXRβ)); expressed in transfected cells; host or cells: CV-1 African Green Monkey Kidney Cells
Sequence (P55055 whole entry): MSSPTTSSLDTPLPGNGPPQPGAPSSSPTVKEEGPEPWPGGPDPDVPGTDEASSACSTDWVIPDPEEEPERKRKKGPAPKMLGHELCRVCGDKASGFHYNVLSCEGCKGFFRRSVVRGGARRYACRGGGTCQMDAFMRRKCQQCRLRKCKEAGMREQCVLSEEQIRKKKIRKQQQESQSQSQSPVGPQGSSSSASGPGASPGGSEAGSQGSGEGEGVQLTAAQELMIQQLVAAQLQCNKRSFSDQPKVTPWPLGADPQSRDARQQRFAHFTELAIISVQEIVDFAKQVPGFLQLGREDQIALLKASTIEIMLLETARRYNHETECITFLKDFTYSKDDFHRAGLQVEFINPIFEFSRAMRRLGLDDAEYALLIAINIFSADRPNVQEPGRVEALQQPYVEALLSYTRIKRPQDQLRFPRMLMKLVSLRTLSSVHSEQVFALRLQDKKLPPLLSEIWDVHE
Sequence (P19793 whole entry partner): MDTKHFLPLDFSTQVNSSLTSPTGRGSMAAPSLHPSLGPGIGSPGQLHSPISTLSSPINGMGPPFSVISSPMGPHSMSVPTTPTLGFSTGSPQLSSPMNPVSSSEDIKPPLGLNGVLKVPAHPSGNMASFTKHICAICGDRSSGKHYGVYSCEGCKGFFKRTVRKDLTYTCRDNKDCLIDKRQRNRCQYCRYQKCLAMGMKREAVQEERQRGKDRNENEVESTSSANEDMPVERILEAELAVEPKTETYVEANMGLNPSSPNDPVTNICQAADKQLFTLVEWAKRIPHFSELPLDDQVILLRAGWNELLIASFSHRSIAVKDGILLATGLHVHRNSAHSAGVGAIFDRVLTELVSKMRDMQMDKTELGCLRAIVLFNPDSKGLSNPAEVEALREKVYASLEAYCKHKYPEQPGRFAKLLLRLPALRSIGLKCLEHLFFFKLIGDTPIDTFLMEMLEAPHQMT
ASSAY_SUMMARY: Co-transfection assay (LXRE luciferase reporter), LXRβ
Assay type: cell-based
CONDITION_SET: LXRβ co-transfection; relative to high control 1-(2,4-difluorobenzyl)-2-oxo-6-(4-phenoxyphenyl)-4-(trifluoromethyl)-1,2-dihydropyridine-3-carbonitrile; read-out: % Efficacy
Kind request: treat 70% as inclusive, so Emax at 70% or higher is criterion met, anything lower is criterion not met.

Before answering, review these 5 worked examples.
MOLECULE	CATEGORY
Cc1nc(C(F)(F)F)cn1-c1ccc(-c2ccc(CO)c(S(C)(=O)=O)c2)cc1-c1ocnc1Cc1ccc(Cl)cc1	criterion not met
Cc1nc(-c2ccc(OC(F)F)cc2)c(-c2cc(-c3cc(F)c(CO)c(S(C)(=O)=O)c3)ccc2-n2cc(C(F)(F)F)nc2C)o1	criterion met
CS(=O)(=O)c1cccc(-c2cc(Cl)c(-n3cnc(C(F)(F)F)c3)c(-n3nncc3-c3ccc(Cl)cc3)c2)c1	criterion not met
Cc1nc(C(F)(F)F)cn1-c1cc(F)c(-c2cccc(S(C)(=O)=O)c2)cc1-n1nncc1-c1ccc(OC(F)(F)F)cc1	criterion met
Cc1nc(C(F)(F)F)cn1-c1ccc(-c2cccc(S(C)(=O)=O)c2)cc1-c1ccnn1-c1ccc2c(c1)OC(F)(F)O2	criterion met

Dear colleague, could you confirm whether Cc1nc(-c2cc(-c3cc(F)c(CO)c(S(C)(=O)=O)c3)ccc2-n2cc(Cl)nc2C)c(-c2ccc3c(c2)OC(F)(F)O3)o1 has Emax at or above 70%? criterion not met

Is reported Emax greater than or equal to 70% here: Cc1nc(-c2cc(-c3cccc(S(C)(=O)=O)c3)ccc2-n2cc(C(F)(F)F)nc2C)c(-c2ccc(OC(F)(F)C(F)(F)F)cc2)o1 criterion not met

Has Cc1nc(Cl)cn1-c1ccc(-c2cccc(S(C)(=O)=O)c2)cc1-n1nncc1-c1ccc(OC(F)(F)F)cc1 a recorded Emax greater than or equal to 70%? criterion met
